Values compiled from ChEMBL document CHEMBL2417506.

Each entry below lists one item and its recorded CC50 at 120 h value.
test: Cytotoxicity against Swiss mouse peritoneal macrophages at 20 uM after 5 days by MTT assay
Type: cell-based, Peritoneal macrophage cell
assayEndpoint: CC50 at 120 h

compound="O=C1CCC(C(O)(c2ccccc2)c2ccccc2)N1c1c2nc(c(-c3ccccc3)c3ccc([nH]3)c(N3C(=O)CCC3C(O)(c3ccccc3)c3ccccc3)c3nc(c(-c4ccccc4)c4ccc1[nH]4)C=C3)C=C2 (stereo not given)" result="> 100 µM"
compound=Brc1ccccc1C(c1ccc[nH]1)c1ccc[nH]1 result="> 100 µM"
compound=COc1cc(/C(=C2\C=CC=N2)c2ccc[nH]2)cc(OC)c1OC result="> 100 µM"
compound=N=C(N)c1ccc(OCCCCCOc2ccc(C(=N)N)cc2)cc1 result="26.3 µM"
compound=c1ccc(C(c2ccc[nH]2)c2ccc[nH]2)cc1 result="> 100 µM"
